// provenance: ChEMBL document CHEMBL5550093

System: HeLa
Assay: Antiproliferative activity against human HeLa cells at 5 uM incubated for 48 hrs by MTT assay relative to control
Type: functional
Readings of inhibition at 5 µM for the listed compounds
Please reply with the bare figure in % and do not write the unit itself.

>>> numeric_result("COc1ccc(N(C)c2nc(C(=O)c3cccc(OC)c3)nc3ccccc23)cc1")
51
>>> numeric_result("O=C(c1ccccc1)c1nc(Nc2ccc(OC(F)(F)F)cc2)c2cc(F)ccc2n1")
27.8
>>> numeric_result("COc1cccc2c1C(=O)c1c(O)c3c(c(O)c1C2=O)C[C@@](O)(C(=O)CO)C[C@@H]3O[C@H]1C[C@H](N)[C@H](O)[C@H](C)O1")
71.7
>>> numeric_result("O=C(c1ccccc1)c1nc(Nc2ccc(N3CCOCC3)cc2)c2cc(F)ccc2n1")
31.1

Exam item: Give recorded inhibition at 5 µM. C=CC(=O)Nc1cccc(Nc2nc(C(=O)c3ccccc3)nc3ccc(F)cc23)c1
Marked response: 7

Exam item: Give recorded inhibition at 5 µM. COC(=O)c1ccc(Nc2nc(C(=O)c3ccccc3)nc3ccc(F)cc23)cc1
Marked response: 0.8

Exam item: Give recorded inhibition at 5 µM. COC(=O)c1ccc(Nc2nc(C(=O)c3ccc(F)cc3)nc3ccccc23)cc1
Marked response: 37.8

Exam item: Give recorded inhibition at 5 µM. O=C(c1ccc(F)cc1)c1nc(Nc2ccc(N3CCNCC3)c(F)c2)c2ccccc2n1
Marked response: 11.3

Exam item: Give recorded inhibition at 5 µM. COc1cccc(C(=O)c2nc(Nc3ccc(OC)c(OC)c3)c3ccccc3n2)c1
Marked response: 41.1

Exam item: Give recorded inhibition at 5 µM. COc1cccc(C(F)(F)c2nc(N(C)c3ccc(OC)c(OC)c3)c3ccccc3n2)c1
Marked response: 51.2

Exam item: Give recorded inhibition at 5 µM. COc1ccc(Nc2nc(C(=O)c3ccccc3)nc3ccc(F)cc23)cc1
Marked response: 2

Exam item: Give recorded inhibition at 5 µM. COC(=O)c1ccc(N(C)c2nc(C(=O)c3ccccc3)nc3ccc(F)cc23)cc1
Marked response: 16

Exam item: Give recorded inhibition at 5 µM. COC(=O)c1ccc(Nc2nc(C(=O)c3ccc(F)cc3)nc3ccccc23)cc1OC
Marked response: 8.2
